# Test system: 889142-216-R-J1-PDC complex spheroid viability
# assayProtocol: Anticancer human tumor 889142-216-R-J1-PDC patient-derived bladder carcinoma cell line growth inhibition [POLQ]
# conditionParameters: second compound 0.0316 µM; first compound 0.0316 µM; stronger effect = lower value
Quick list: viability, T/C per entry.
The figure you give is taken to be in %; do not add the unit.

# molecule, unitSpec, viability, T/C
rows = [
    ("COc1cccc(OCCCN)c1-c1cc(Nc2cnc(C#N)cn2)n[nH]1 + Nc1ccc(C#CCN(C(=O)Cc2ncc(C(F)(F)F)cc2C(F)(F)F)c2ccc(F)cc2)nn1", "%", 60.2),
    ("C=CCn1c(=O)c2cnc(Nc3ccc(N4CCN(C)CC4)cc3)nc2n1-c1cccc(C(C)(C)O)n1 + COC1C(OC(N)=O)C(O)C(Oc2ccc3c(O)c(NC(=O)c4ccc(O)c(CC=C(C)C)c4)c(=O)oc3c2C)OC1(C)C", "%", 86.6),
]

// field: viability, T/C; key: COc1cc(C2c3cc4c(cc3C(OC3OC5COC(C)OC5C(O)C3O)C3COC(=O)C23)OCO4)cc(OC)c1O (stereo not drawn) + Nc1ccc(C#CCN(C(=O)Cc2ncc(C(F)(F)F)cc2C(F)(F)F)c2ccc(F)cc2)nn1 ; value = 90.8

###

# Test system: 889142-216-R-J1-PDC complex spheroid viability
# assayProtocol: Anticancer human tumor 889142-216-R-J1-PDC cell line growth inhibition [POLQ];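 note: spheroids exposed to compounds for seven days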;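 for viability, T/C: 100% = DMSO vehicle control viability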
# conditionParameters: second compound 0.0316 µM; first compound 0.0316 µM; stronger effect = lower value
# Method: Multicellular complex tumor spheroid response to Polymerase (POL) inhibitors (novobiocin, ART-558, RP6685) in combination with a variety of drugs and investigational agents in selected tumor cell lines The POL inhibitors (novobiocin, ART-558, and RP6685) were evaluated both individually and in combination with standard of care and investigational anticancer small molecules within a complex spheroid model of solid tumors. . […]
Items are presented alongside their recorded viability, T/C.
Could you give me the number in %? Just the number is fine.

Here's what some known entries look like.
# compound, unitSpec, viability, T/C
rows = [
    ("O=c1[nH]cc(F)c(=O)[nH]1 + Nc1ccc(C#CCN(C(=O)Cc2ncc(C(F)(F)F)cc2C(F)(F)F)c2ccc(F)cc2)nn1", "%", 91.6),
    ("COc1ccc([C@@H](O)c2cc(-c3ncnc4cc(N5CCOCC5)ccc34)c(F)cc2Cl)nn1 + COC1C(OC(N)=O)C(O)C(Oc2ccc3c(O)c(NC(=O)c4ccc(O)c(CC=C(C)C)c4)c(=O)oc3c2C)OC1(C)C", "%", 88.8),
    ("CC1COCCN1c1cc(C2(S(C)(=N)=O)CC2)nc(-c2ccnc3[nH]ccc23)n1 (stereo unspecified) + Nc1ccc(C#CCN(C(=O)Cc2ncc(C(F)(F)F)cc2C(F)(F)F)c2ccc(F)cc2)nn1", "%", 101),
    ("C=CC(=O)N1CCN(c2nc(=O)n(-c3c(C)ccnc3C(C)C)c3nc(-c4c(O)cccc4F)c(F)cc23)C(C)C1 (stereo unspecified) + Nc1ccc(C#CCN(C(=O)Cc2ncc(C(F)(F)F)cc2C(F)(F)F)c2ccc(F)cc2)nn1", "%", 95.4),
    ("CCc1cc2c(N3CCc4c(cc(Cn5ccnc5)cc4-c4cn(C)nc4C(F)(F)F)C3=O)cc(C)nc2c(OC)n1 + Nc1ccc(C#CCN(C(=O)Cc2ncc(C(F)(F)F)cc2C(F)(F)F)c2ccc(F)cc2)nn1", "%", 98.2),
    ("CC[C@@]1(O)C(=O)OCc2c1cc1n(c2=O)Cc2cc3c(CN(C)C)c(O)ccc3nc2-1 + Cc1cccc(N(C)C(=O)C2C(O)CCN2c2nc(C)cc(C(F)(F)F)c2C#N)c1", "%", 71.2),
]

Given the compound CC1COCCN1c1cc(-c2ccnn2C)c2ccnc(-c3ccn[nH]3)c2n1 (stereo unspecified) + COC1C(OC(N)=O)C(O)C(Oc2ccc3c(O)c(NC(=O)c4ccc(O)c(CC=C(C)C)c4)c(=O)oc3c2C)OC1(C)C and test system 889142-216-R-J1-PDC complex spheroid viability, the measured viability, T/C is 97.8

###

# System: 889142-216-R-J1-PDC complex spheroid viability
# assayProtocol: Anticancer human tumor 889142-216-R-J1-PDC cell line growth inhibition [POLQ];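 note: spheroids exposed to compounds for seven days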;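 for viability, T/C: 100% = DMSO vehicle control viability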
# conditionParameters: second compound 0.1 µM; first compound 0.0316 µM; stronger effect = lower value
Each item that follows carries a reported viability, T/C.
Value expressed in %; do not type the unit.

# molecule, viability, T/C (%)
records = [
    ("CCc1cc2c(N3CCc4c(cc(Cn5ccnc5)cc4-c4cn(C)nc4C(F)(F)F)C3=O)ccnc2c(OC)n1 + COC1C(OC(N)=O)C(O)C(Oc2ccc3c(O)c(NC(=O)c4ccc(O)c(CC=C(C)C)c4)c(=O)oc3c2C)OC1(C)C", 101),
    ("Nc1ccn(C2OC(CO)C(O)C2(F)F)c(=O)n1 (stereo not given) + Nc1ccc(C#CCN(C(=O)Cc2ncc(C(F)(F)F)cc2C(F)(F)F)c2ccc(F)cc2)nn1", 62.8),
    ("O=C(Nc1ccc(O)c(NS(=O)(=O)c2ccc(F)cc2)c1)c1ccc(-c2ccccc2)cc1 + COC1C(OC(N)=O)C(O)C(Oc2ccc3c(O)c(NC(=O)c4ccc(O)c(CC=C(C)C)c4)c(=O)oc3c2C)OC1(C)C", 93.9),
]

In plain terms, CC1COCCN1c1cc(-c2ccnn2C)c2ccnc(-c3ccn[nH]3)c2n1 (stereo not given) + COC1C(OC(N)=O)C(O)C(Oc2ccc3c(O)c(NC(=O)c4ccc(O)c(CC=C(C)C)c4)c(=O)oc3c2C)OC1(C)C has a documented viability, T/C of 79

In plain terms, C#Cc1c(F)ccc2cc(O)cc(-c3ncc4c(N5CC6CCC(C5)N6)nc(OCC56CCCN5CC(F)C6)nc4c3F)c12 (stereo not given) + Nc1ccc(C#CCN(C(=O)Cc2ncc(C(F)(F)F)cc2C(F)(F)F)c2ccc(F)cc2)nn1 has a documented viability, T/C of 103

###

# System: 889142-216-R-J1-PDC complex spheroid viability
# assayProtocol: Anticancer human tumor 889142-216-R-J1-PDC cell line growth inhibition [POLQ];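 note: spheroids exposed to compounds for seven days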
# conditionParameters: curve of first compound; second compound 0.0316 µM
Recorded IC50, one value per entry.

# compound, measuredTarget, IC50
data = [
    ("C=CC(=O)N1CCN(c2nc(=O)n(-c3c(C)ccnc3C(C)C)c3nc(-c4c(O)cccc4F)c(F)cc23)C(C)C1 (stereo unspecified) + Cc1cccc(N(C)C(=O)C2C(O)CCN2c2nc(C)cc(C(F)(F)F)c2C#N)c1", "889142-216-R-J1-PDC complex spheroid viability", "> 10 µM"),
]

IC50 recorded for this compound, COc1cccc(OCCCN)c1-c1cc(Nc2cnc(C#N)cn2)n[nH]1 + Nc1ccc(C#CCN(C(=O)Cc2ncc(C(F)(F)F)cc2C(F)(F)F)c2ccc(F)cc2)nn1 , is 0.136 µM

For CCc1cc2c(N3CCc4c(cc(Cn5ccnc5)cc4-c4cn(C)nc4C(F)(F)F)C3=O)ccnc2c(OC)n1 + COC1C(OC(N)=O)C(O)C(Oc2ccc3c(O)c(NC(=O)c4ccc(O)c(CC=C(C)C)c4)c(=O)oc3c2C)OC1(C)C the compound record lists IC50 as > 10 µM

So for COc1cc(C2c3cc4c(cc3C(OC3OC5COC(C)OC5C(O)C3O)C3COC(=O)C23)OCO4)cc(OC)c1O (stereo unspecified) + COC1C(OC(N)=O)C(O)C(Oc2ccc3c(O)c(NC(=O)c4ccc(O)c(CC=C(C)C)c4)c(=O)oc3c2C)OC1(C)C , the logged IC50 turned out to be > 10 µM

IC50 in this record for CCc1c2c(nc3ccc(O)cc13)-c1cc3c(c(=O)n1C2)COC(=O)[C@]3(O)CC + Nc1ccc(C#CCN(C(=O)Cc2ncc(C(F)(F)F)cc2C(F)(F)F)c2ccc(F)cc2)nn1 : 0.0195 µM

For reference, reported IC50 for CNCc1ccc(-c2[nH]c3cc(F)cc4c3c2CCNC4=O)cc1 + COC1C(OC(N)=O)C(O)C(Oc2ccc3c(O)c(NC(=O)c4ccc(O)c(CC=C(C)C)c4)c(=O)oc3c2C)OC1(C)C stands at > 10 µM

###

# System: 889142-216-R-J1-PDC complex spheroid viability
# assayProtocol: Anticancer human tumor 889142-216-R-J1-PDC cell line growth inhibition [POLQ];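 note: spheroids exposed to compounds for seven days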;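 for viability, T/C: 100% = DMSO vehicle control viability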
# conditionParameters: second compound 3.16 µM; first compound 10 µM; stronger effect = lower value
measurementType: viability, T/C (%)
Respond with the bare value in %.

# compound, measuredTarget, viability, T/C, %
data = [
    ("CCc1cc2c(N3CCc4c(cc(Cn5ccnc5)cc4-c4cn(C)nc4C(F)(F)F)C3=O)ccnc2c(OC)n1 + Cc1cccc(N(C)C(=O)C2C(O)CCN2c2nc(C)cc(C(F)(F)F)c2C#N)c1", "889142-216-R-J1-PDC complex spheroid viability", 75.8),
    ("CC1COCCN1c1cc(-c2ccnn2C)c2ccnc(-c3ccn[nH]3)c2n1 (stereo unspecified) + Cc1cccc(N(C)C(=O)C2C(O)CCN2c2nc(C)cc(C(F)(F)F)c2C#N)c1", "889142-216-R-J1-PDC complex spheroid viability", 27.9),
    ("O=C(Nc1ccc(O)c(NS(=O)(=O)c2ccc(F)cc2)c1)c1ccc(-c2ccccc2)cc1 + Cc1cccc(N(C)C(=O)C2C(O)CCN2c2nc(C)cc(C(F)(F)F)c2C#N)c1", "889142-216-R-J1-PDC complex spheroid viability", 77.6),
    ("C#Cc1c(F)ccc2cc(O)cc(-c3ncc4c(N5CC6CCC(C5)N6)nc(OCC56CCCN5CC(F)C6)nc4c3F)c12 (stereo unspecified) + COC1C(OC(N)=O)C(O)C(Oc2ccc3c(O)c(NC(=O)c4ccc(O)c(CC=C(C)C)c4)c(=O)oc3c2C)OC1(C)C", "889142-216-R-J1-PDC complex spheroid viability", 23.2),
    ("O=c1[nH]cc(F)c(=O)[nH]1 + Nc1ccc(C#CCN(C(=O)Cc2ncc(C(F)(F)F)cc2C(F)(F)F)c2ccc(F)cc2)nn1", "889142-216-R-J1-PDC complex spheroid viability", 73.8),
]

Recorded viability, T/C (compound COc1cc(C2c3cc4c(cc3C(OC3OC5COC(C)OC5C(O)C3O)C3COC(=O)C23)OCO4)cc(OC)c1O (stereo unspecified) + Cc1cccc(N(C)C(=O)C2C(O)CCN2c2nc(C)cc(C(F)(F)F)c2C#N)c1 ): 52.4

Form field viability, T/C, entry O=C(c1cc(Cc2n[nH]c(=O)c3ccccc23)ccc1F)N1CCN(C(=O)C2CC2)CC1 + Nc1ccc(C#CCN(C(=O)Cc2ncc(C(F)(F)F)cc2C(F)(F)F)c2ccc(F)cc2)nn1 : 62.8

For reference, reported viability, T/C for C=CC(=O)N1CCN(c2nc(=O)n(-c3c(C)ccnc3C(C)C)c3nc(-c4c(O)cccc4F)c(F)cc23)C(C)C1 (stereo unspecified) + Nc1ccc(C#CCN(C(=O)Cc2ncc(C(F)(F)F)cc2C(F)(F)F)c2ccc(F)cc2)nn1 stands at 104
